biological target: BioA, adenosylmethionine-8-amino-7-oxononanoate aminotransferase (Mycobacterium tuberculosis); assay: BioA aminotransferase inhibition, biochemical, coupled fluorescence displacement, 20-point, dry powder, dose response (AID 743357); details: coupled fluorescence displacement assay
Catalogue of molecules with associated AC50

Query: Item `CCC(=O)N1CC[C@@H]2[C@@H](CO)N(C)c3ccc(-c4ccc(F)cc4)cc3[C@@H]21` has what recorded AC50?
Response: 2820 nM

Query: Field entry: `CC(=O)c1ccc(N2CCN(C(=O)c3ccccc3F)CC2)cc1`
Response: 6400 nM

Query: Ok, now `CC(=O)c1ccc(N2CCN(C(=O)c3ccc(Cl)c(Cl)c3)CC2)cc1`
Response: 217 nM

Query: Please give the result for `COc1cc(C(=O)N2CCN(c3ccc(C(C)=O)cc3)CC2)cc2c1OCO2` too.
Response: 181 nM

---
Query: Quick check: AC50 of `CC(=O)c1ccc(N2CCN(C(=O)c3ccc4ocnc4c3)CC2)cc1` ?
Response: 198 nM

Query: Could you do the same for `CC(=O)c1ccc(N2CCN(C(=O)c3cc4c(cc3Cl)OCO4)CC2)cc1` , please?
Response: 6570 nM

Query: Would you kindly repeat that for `CC(=O)c1ccc(N2CCN(C(=O)c3ccc4c(c3)OCO4)[C@H](C)C2)cc1` ?
Response: 55.3 nM

Query: Same lookup for `CC(=O)c1ccc(N2CCN(C(=O)c3cc4c(cc3C)OCO4)CC2)cc1` , please.
Response: 1090 nM

Query: Then this molecule: `CC(=O)c1ccc(N2CCN(C(=O)c3cccc4c3OCO4)CC2)cc1`
Response: 1580 nM

Query: Again, but for `CC(=O)c1ccc(N2CCN(C(=O)c3ccc4c(c3)OCO4)CC2)cc1`
Response: 49.7 nM

----------
target: BioA, adenosylmethionine-8-amino-7-oxononanoate aminotransferase (Mycobacterium tuberculosis); experiment: BioA aminotransferase inhibition, biochemical, coupled fluorescence displacement, 20-point, dry powder, dose response (AID 743357); details: coupled fluorescence displacement assay, measured here: test 1 replicate AC50
// AC50 lookup, one value per entry
Record the value in nM, omitting the unit from your answer.

Completed entries (count: 2):
Query: For `CC(=O)c1ccc(N2CCN(C(=O)c3ccc(Cl)c(Cl)c3)CC2)cc1` , what is its reported AC50?
Response: 217

Query: Now this one: `CC(=O)c1ccc(N2CCN(C(=O)c3ccc4snnc4c3)CC2)cc1`
Response: 1850

Now, please, on to the next molecule.
Query: Please report the recorded AC50 for `CC(=O)c1ccc(N2CCN(C(=O)c3cc4c(cc3Cl)OCO4)CC2)cc1` .
Response: 6570

----------
Listing of entries alongside the reported AC50.
biological target: BioA, adenosylmethionine-8-amino-7-oxononanoate aminotransferase (Mycobacterium tuberculosis); experiment: BioA aminotransferase inhibition, biochemical, coupled fluorescence displacement, 20-point, dry powder, dose response (AID 743357); details: coupled fluorescence displacement assay

In the examples that follow, each entry is paired with its recorded AC50.
Query: Would you kindly share the measured AC50 for `COCC(=O)N1CC[C@@H]2[C@@H](CO)N(C)c3ccc(-c4cccc(F)c4)cc3[C@@H]21` ?
Response: 55.4 nM

Query: And for `CC(=O)c1ccc(N2CCCN(C(=O)c3ccc4c(c3)OCO4)CC2)cc1` ?
Response: 289 nM

Query: Queued: `CC(=O)c1ccc(N2CCN(C(=O)c3ccccc3Cl)CC2)cc1`
Response: 8240 nM

Query: // same read-out, input: `CC(=O)c1ccc(N2CCN(C(=O)c3ccc4c(c3C)OCO4)CC2)cc1`
Response: 53.7 nM

Next:
Query: Reported AC50 for `CC(=O)c1ccc(N2CCN(C(=O)c3ccc4snnc4c3)CC2)cc1` : what is it?
Response: 1850 nM
